System: SN12C
assay_comment: NCI tumour cell line growth inhibition, 48 h
Active and inactive are the calls of the source. No stated cut-off is given here; in the data, active = GI50 up to about 1.1 µM and inactive = higher.
Your response should consist of one outcome taken from active, inactive

Exercise: How did this test come out for COc1ccc2c(c1OC)C(=O)O[C@@H]2[C@H]1c2c(cc3c(c2OC)OCO3)CCN1C [NOSCAPINE] ?
Solution: inactive

Exercise: Now the molecule CC(=O)NNc1nc(C)c(C(=O)NNC(=O)C(=O)Nc2ccccc2C#N)s1
Solution: inactive

Exercise: Request: Cc1cc(N(CCC#N)CCC#N)ccc1C(/N=N\c1ccc([N+](=O)[O-])cc1)=N\NC(=O)c1cc(Cl)ccc1O
Solution: inactive

Exercise: Quick one: COc1cc(/C=C2\N=C(c3ccccc3)N(c3ccc4c(c3)Sc3cc(N5C(=O)/C(=C/c6cc(OC)c(OC)c(OC)c6)N=C5c5ccccc5)ccc3N4)C2=O)cc(OC)c1OC
Solution: inactive

Exercise: Please do the same for Cc1c2cc[n+](C)cc2c(C)c2c1[nH]c1ccc(OC(C)C)cc12 as well.
Solution: active

Exercise: Proceed to CC1=C(CO)C(=O)O[C@@H]([C@@H](CO)[C@H]2CCC3C4C[C@@H](O)[C@@]5(O)CC=CC(=O)[C@]5(C)C4CC[C@@]32C)C1 (stereo partly drawn)
Solution: inactive

Exercise: Try Cc1csc(CP(=O)(OC(C)C)OC(C)C)n1 next.
Solution: inactive

Exercise: Can you check CCOC(=O)c1cc(-c2ccc(Cl)cc2)c([N+](=O)[O-])n1C next?
Solution: inactive

New cases:
Exercise: Outcome logged for O=C(O)CN1CCN(CC(=O)N2CCN(C(=O)OCc3ccccc3)CC2)CCN(CC(=O)O)CCN(CC(=O)N2CCN(C(=O)OCc3ccccc3)CC2)CC1 in this assay:
Solution: inactive

Exercise: Ok, now O=C1NC(=S)NC(=O)C1C(c1ccc([N+](=O)[O-])cc1)C1C(=O)NC(=S)NC1=O.c1ccncc1
Solution: inactive

Exercise: And the next one, CCOC(=O)C(=O)Nc1cccc(Cl)c1C ?
Solution: inactive

Exercise: // next record Cc1cn(C2CCC(/C=N\O)O2)c(=O)[nH]c1=O (stereo not drawn)
Solution: inactive

---

List of GI50 values.
System: SF-539
assay_comment: NCI tumour cell line growth inhibition, 48 h
Active and inactive are the calls of the source. No stated cut-off is given here; in the data, active = GI50 up to about 1.1 µM and inactive = higher.

Study these solved cases before continuing.
Exercise: GI50 lookup needed for CCC1OC(=O)CC(O)C(C)C(OC2OC(C)CC(N(C)C)C2O)C(CC=O)CC(C)C(=O)/C=C/C2(C)OC2C1C (stereo not given) , thanks.
Solution: 6.62 µM (inactive)

Exercise: Note, next up: COc1ccc(Cc2nn(C3OC(COC(C)=O)C(OC(C)=O)C(OC(C)=O)C3OC(C)=O)c(=S)n(-c3ccc(OC)cc3)c2=O)cc1 (stereo not given)
Solution: > 100 µM (inactive)

Exercise: // same read-out, input: COC(=O)Nc1nc2cc(NS(=O)(=O)c3cccs3)ccc2[nH]1
Solution: 29.2 µM (inactive)

Exercise: Please answer likewise for CCOC(=O)C1=CC(C)(C(=O)OCC)Nc2c(nc(SC)[nH]c2=O)N1 (stereo not given)
Solution: > 10 µM (inactive)

---
Exercise: Any idea what its GI50 is? The compound is CN(/N=C\c1ccc2ccccc2c1)C1=NCCCN1
Solution: 19.8 µM (inactive)

Exercise: Similarly, COS(=O)(=O)OCCC(NC(=O)OCc1ccccc1)C(=O)OCc1ccccc1 (stereo not given) ?
Solution: > 100 µM (inactive)

Exercise: Now consider CC(C)=C[C@H]1CCC2(OCCO2)[C@]1(C)CO .
Solution: > 100 µM (inactive)

Exercise: Same question, CCOC(=O)Cc1c(C)c2cc(C(=O)c3ccccc3)c(O)cc2oc1=O this time
Solution: 20.4 µM (inactive)

Exercise: Also check N/N=C(/C=C1\C(=O)Nc2ccccc21)c1ccccc1
Solution: 18.7 µM (inactive)

Exercise: Input Cc1cc(=O)oc2c(C)c(O)ccc12
Solution: > 100 µM (inactive)

---

Tested on: MDA-MB-231
assay_comment: NCI tumour cell line growth inhibition, 48 h
Active and inactive are the calls of the source. Rule as the data show it: active = GI50 up to about 1.1 µM and inactive = higher. Where a SMILES comes first, the peptide text is derived from it. [ ]: non-standard residue; d: D form. The star is where a group is joined. Hyp = O=C(O)[CH]1C[CH](O)CN1; Cbz = O=C(OCc1ccccc1)*; Boc = CC(C)(C)OC(=O)*
measurement_label: GI50

Exercise: Please give the measured GI50 for this compound: NC(=O)C(Nc1ccc(Cl)cc1)c1cc2cc(Br)ccc2nc1Cl (stereo not drawn)
Solution: > 50 µM (inactive)

Exercise: Ok, now C=CC(C)(C)n1cc(C2=C3OC(=O)C(c4cn(C(C)(C)C=C)c5ccccc45)=C3OC2=O)c2ccccc21
Solution: > 100 µM (inactive)

Exercise: Same question, CC(CO)C1C[C@H](O)[C@@]2(C)CC(=O)C=C(CO)[C@@H]2C1 (stereo partly drawn) this time
Solution: > 100 µM (inactive)

Exercise: Record: c1nc(NCCc2c[nH]cn2)c2nc[nH]c2n1
Solution: > 100 µM (inactive)

Exercise: What do you have for CCOc1ccc(NCc2cc(OC)c(OC)c(OC)c2)cc1 ?
Solution: 2.5 µM (inactive)

Exercise: Subsequent entry: NC(C/C=C/P(=O)(O)O)C(=O)O (stereo not drawn)
Solution: > 100 µM (inactive)

Exercise: Please do the same for COc1cc(/C=C\c2nnc(/C=C\c3ccc(O)c(OC)c3)s2)ccc1O as well.
Solution: 4.94 µM (inactive)

Exercise: CCOC(=O)C1C(C)C2(C#N)C(=N)OC1(C)C2(C#N)C#N (stereo not drawn) , same question.
Solution: > 100 µM (inactive)

Exercise: Now this one: CN1CCN(c2ccncc2S(=O)(=O)N2CCN(C)CC2)CC1
Solution: > 100 µM (inactive)

Exercise: Also O=C(Nc1ccccc1)c1cc(S(=O)(=O)N2CCNC2=O)c(S)cc1Cl , if possible.
Solution: > 100 µM (inactive)

***
Exercise: Which measured GI50 value corresponds to COc1cc(O)c2c(=O)cc(C3(O)C=CC(=O)C=C3)oc2c1 ?
Solution: 0.327 µM (active)

Exercise: Then this compound: CC(C)C(=O)/C=C/c1c(Cl)cccc1Cl
Solution: 4.28 µM (inactive)

Exercise: Note, next up: Cn1c(C(C)(C)OC(=O)Oc2ccccc2)cnc1[N+](=O)[O-]
Solution: 26.1 µM (inactive)

Exercise: Record: COc1ccc(-c2cc(O)c3ccc(C)nc3n2)cc1
Solution: > 100 µM (inactive)

Exercise: Same question for CN1CCN(C(=S)N(C)C(=O)c2ccc(Cl)cc2)CC1 please.
Solution: > 100 µM (inactive)

Exercise: Now consider O=c1[nH]nc(-c2ccccc2)n1-n1cccc1 .
Solution: > 100 µM (inactive)

Exercise: O=[N+]([O-])/C(C(Cl)=C(Cl)Cl)=C(\Nc1cccc2ccccc12)Sc1ccccc1 ?
Solution: 11.3 µM (inactive)

Exercise: Then what about the compound NS(=O)(=O)c1nnc(NS(=O)(=O)c2ccc([N+](=O)[O-])cc2)s1 ?
Solution: > 100 µM (inactive)

Exercise: Param item: CC(C)(C)OC(=O)NC(Cc1ccccc1)C(=O)N1CCCC1C(N)=O (stereo not drawn) (Boc-Phe-Pro-NH2; configuration not given here)
Solution: > 100 µM (inactive)

Exercise: Next entry: CC[C@H](C)c1occ2c(O)c(C(=O)O)c(=O)cc-2c1C
Solution: 23 µM (inactive)

Exercise: Same thing, different compound: COC(=O)c1ccccc1/C=C1/Cc2ccccc2C1=O
Solution: 44.7 µM (inactive)

Exercise: Queued: NCCCC(N)C(=O)O (stereo not drawn)
Solution: > 100 µM (inactive)

Exercise: // same read-out, input: C/C(=N\O)c1ccc(OCc2cc(C(F)(F)F)cc(C(F)(F)F)c2)cc1
Solution: > 100 µM (inactive)

Exercise: Check NC(=O)CNC(=O)C1CC(O)CN1C(=O)C1CCCN1C(=O)OCc1ccccc1 (stereo not drawn) (Cbz-Pro-[Hyp]-Gly-NH2; configuration not given here) too.
Solution: > 100 µM (inactive)

Exercise: What about O=C(CSc1nnc(-c2ccccn2)s1)N/N=C/c1ccccc1 ?
Solution: > 100 µM (inactive)

Exercise: CCOC(=O)Oc1cc2ccsc2c2c1c1ccccc1n2C(=O)OCC ?
Solution: 35.6 µM (inactive)

Exercise: Further, for Cc1ccccc1S(=O)(=O)Nn1cnc2ccc(S(=O)(=O)Nc3ccc(Cl)cc3)cc2c1=O ?
Solution: > 100 µM (inactive)

Exercise: For CC(C(O)c1ccccc1)N(C)/N=N/c1nc2c([nH]1)c(=O)n(C)c(=O)n2C (stereo not drawn) then?
Solution: 92.3 µM (inactive)

Exercise: Now give it for COc1cc2c(cc1O)CC[n+]1cc3c(OC)c(OC)ccc3cc1-2 too.
Solution: > 100 µM (inactive)

Exercise: // query: CC1(c2ccccc2)CCN(C2CC2)CO1 (stereo not drawn)
Solution: 19.3 µM (inactive)

Exercise: Can you handle C=C(C)C1Cc2cc(C(C)=O)ccc2O1 (stereo not drawn) next?
Solution: > 100 µM (inactive)

Exercise: Note, next up: CC1C2CC(CC2O)C1(C)C (stereo not drawn)
Solution: > 100 µM (inactive)

Exercise: Another compound: CCc1c(O)c2c(c(O)c1C(C)=O)C(=O)c1c(cc(O)c(C(=O)O)c1C(=O)O)C2=O
Solution: > 100 µM (inactive)

The values you see were collected from ChEMBL document CHEMBL1201862.
